cytotoxicity at 70.5 h overview
experiment: Human HepG2 cell viability assay in 384 well format; assay type: toxicity, cell-based; parameters: dose 125 nL, time 70.5 hour; concentration not given beside the values; settings: HepG2 cells, read-out: Inhibition

{"columns": ["Molecule", "cytotoxicity at 70.5 h, %"],
 "data": [
  ["Cn1c(N)nnc1SC1CCCN(c2ccccc2F)C1=O (centres undefined)", -1.56],
  ["COCCNC(=O)N1CCC(NC(C)C)CC1", 5.14],
  ["Cc1ccc(SC2CCCC2)c(C(=O)NCCO)c1", -23.4],
  ["Cc1cc(C(=O)N2CCCC2c2nnc3n2CCCCC3)on1 (centres undefined)", -2.64],
  ["COCCN1CC2(CCC1=O)CCN(Cc1cc(F)ccc1Cl)CC2", 6.46],
  ["Cc1ccc(C(=O)N2CC[C@@]3(C[C@@H](NS(C)(=O)=O)CCO3)C2)s1", 4.89],
  ["O=C1NC[C@H]2CN(Cc3ccnc4ccccc34)CCN12", -6.05],
  ["CC(=O)NCCNC(=O)Nc1ccc(C)cc1OCc1ccccc1", -1.2],
  ["CNC(=O)c1cccnc1Oc1ccccc1", -5.8],
  ["O=C(Cn1cnc2ccccc2c1=O)Nc1cc(C2CC2)n[nH]1", 107],
  ["CNC(=O)[C@@H]1C[C@H](N)CN1S(=O)(=O)c1cc(Cl)c(Cl)s1", -2.73],
  ["CC1CN(CC(=O)Nc2nccs2)CCN1Cc1nccn1C (centres undefined)", -6.31],
  ["O=C(c1ccc(CN2CCCCC2)cc1)N1Cc2cnn(CCO)c2C1", 19.3],
  ["CC1CCN(C(=O)CN2CC(c3nc(C4CC4)no3)C2)CC1", 23.6],
  ["O=C1NC2(CCNCC2)CC1c1ccncc1 (centres undefined)", 10.1],
  ["CCn1cc(CNc2ccc(F)c(N3CCCS3(=O)=O)c2)cn1", 0.531],
  ["CN1C[C@@H](C(=O)NC2CC2)[C@@]2(COc3ccc(F)cc3C2=O)C1", 12.2],
  ["COc1c(F)cc(CN2CCC3(CC2)CN(C)C(=O)O3)cc1Cl", -7.54],
  ["Cc1cc(CN2CCN(C(=O)C3(C#N)CCCC3)CC2)on1", 21],
  ["CS(=O)(=O)N1CCN2C(=O)N(C3CCOCC3)C[C@H]2C1", 12.9],
  ["Cc1ccccc1NCc1nc2n(n1)CCCCC2", 0.338],
  ["Cn1c(=O)ccn(CC(=O)Nc2cccnc2)c1=O", 12.6],
  ["Cc1cc(N2CCCC2(C)c2nc(C)cc(C(=O)N(C)C)n2)ncn1 (centres undefined)", -2.78],
  ["CNS(=O)(=O)c1ccc(C(=O)NCc2ccnc(OC)c2)cc1", -10]
]}

###

Catalogue of compounds with associated cytotoxicity at 70.5 h
assay: Human HepG2 cell viability assay in 384 well format; type: toxicity, cell-based; parameters: dose 125 nL, time 70.5 hour; concentration not given beside the values; details: HepG2 cells, read-out: Inhibition
Quantity Kind: cytotoxicity at 70.5 h

{"columns": ["Compound", "Quantity Kind", "Result"],
 "data": [
  ["CC(C)CN1Cc2nc(N3CCCC(C)C3)ncc2C1=O (configuration not stated)", "cytotoxicity at 70.5 h", "-9.32%"],
  ["O=S(=O)(N1CCCCCC1)N1CCN(Cc2ccc(F)cc2Br)CC1", "cytotoxicity at 70.5 h", "-4.85%"],
  ["Cc1c(C(=O)N2CCCC(C(=O)c3nccn3C)C2)c[nH]c(=O)c1C#N (configuration not stated)", "cytotoxicity at 70.5 h", "-7.06%"],
  ["CN(C)[C@@H]1CN(C(=O)CCc2ccccc2)[C@@H]2CCCO[C@H]12", "cytotoxicity at 70.5 h", "-3.71%"],
  ["CN(CCNC(=O)Nc1nccs1)Cc1ccc(F)cc1", "cytotoxicity at 70.5 h", "-13.1%"],
  ["CC(C)(C)c1cc(C(=O)NCCN2CCCS2(=O)=O)[nH]n1", "cytotoxicity at 70.5 h", "-14.3%"],
  ["CC(NCc1cnc(N2CCOCC2)nc1)c1ccc(Cl)s1 (configuration not stated)", "cytotoxicity at 70.5 h", "-9.24%"],
  ["Cc1nc(CNCC2CCCN2c2cccnn2)oc1C (configuration not stated)", "cytotoxicity at 70.5 h", "-4.96%"],
  ["CCN(c1ccc(C(=O)N2CCC(C(N)=O)CC2)cc1)S(=O)(=O)CC", "cytotoxicity at 70.5 h", "15.4%"],
  ["Nc1cc2c(nn1)CCN(C(=O)Cc1ccc3c(c1)CCCC3)C2", "cytotoxicity at 70.5 h", "-2.05%"],
  ["Cn1c2c(ccc1=O)CC(NS(C)(=O)=O)CC2 (configuration not stated)", "cytotoxicity at 70.5 h", "27.8%"],
  ["O=S(=O)(Cc1ccccc1)NCC1CCCN(Cc2cccs2)C1 (configuration not stated)", "cytotoxicity at 70.5 h", "-0.373%"]
]}
